Values were extracted from patent US20240293380A1.

# TARGET SYSTEM: SARS-CoV-2 3CLpro (Severe acute respiratory syndrome coronavirus 2 (2019-nCoV) (SARS-CoV-2))
ATTRIBUTE MEASURED: pIC50
In textbook form, pIC50 equals minus log to base ten of the concentration in mol/L.

COMPOUND: Cc1cncc(CC(=O)N(Cc2cc(F)cc(Cl)c2)c2ccc(-c3c[nH]cn3)cc2)c1 [Compound 70]
ATTRIBUTE MEASURED: pIC50
EXPERIMENTAL VALUE: 7.08

Given COc1ccc(Cl)cc1CN(C(=O)Cc1cncc2ccccc12)c1ccc(-c2c[nH]cn2)cc1 [Compound 18] , respond with its pIC50. 6.72

Identify the reported pIC50 for the following entry. O=C(Cc1nnc2ccccn12)N(Cc1cccc(F)c1F)c1ccc(-c2c[nH]cn2)cc1 [Compound 24] 5.89

====

# TARGET SYSTEM: SARS-CoV-2 3CLpro (Severe acute respiratory syndrome coronavirus 2 (2019-nCoV) (SARS-CoV-2))
Classes (IC50): interval 1: < 0.1 µM; interval 2: ≥ 0.1 µM and < 0.4 µM; interval 3: ≥ 0.4 µM

Example entries begin here.
MOLECULE: O=C(Cc1nncc2ccccc12)N(Cc1cc(F)cc(Cl)c1)c1ccc(-c2c[nH]cn2)cc1
ASSIGNED LABEL: interval 1
//
MOLECULE: O=C(Cc1nnc2ccccn12)N(Cc1cc(F)cc(Cl)c1)c1ccc(-c2c[nH]cn2)cc1
ASSIGNED LABEL: interval 1
//
MOLECULE: O=C(Cc1cncc2ccccc12)N(Cc1cc(F)ccc1F)c1ccc(-c2c[nH]cn2)cc1
ASSIGNED LABEL: interval 2
//
MOLECULE: O=C(Cc1cncc2ccccc12)N(Cc1cncc(C(F)(F)F)c1)c1ccc(-c2c[nH]cn2)cc1
ASSIGNED LABEL: interval 1
//
MOLECULE: N#Cc1ccc(N(Cc2cc(F)cc(F)c2)C(=O)Cc2cncc3ccccc23)cc1
ASSIGNED LABEL: interval 3
//
MOLECULE: O=C(Cc1cnc2ccccn12)N(Cc1cc(F)cc(Cl)c1)c1ccc(-c2c[nH]cn2)cc1
ASSIGNED LABEL: interval 1
//
MOLECULE: O=C(Cc1cncc(F)c1)N(Cc1cncc(F)c1)c1ccc(-c2c[nH]cn2)cc1
ASSIGNED LABEL: interval 3
//
MOLECULE: COc1ccncc1CC(=O)N(Cc1cc(F)cc(Cl)c1)c1ccc(-c2c[nH]cn2)cc1
ASSIGNED LABEL: interval 2

Class for O=C(Cc1cncc2ccccc12)N(Cc1cncc(F)c1)c1ccc(C2=CCNC2)cc1 ? interval 3

Which bin should I file O=C(Cc1cncc2ccccc12)N(Cc1cccc(Cl)c1F)c1ccc(-c2c[nH]cn2)cc1 under? interval 2

Which IC50 category applies to CC(C)(C)NC(=O)C(c1cc(F)cc(F)c1)N(C(=O)Cc1cncc2ccccc12)c1ccc(C2=CCNC2)cc1 (stereo not shown) here? interval 3

Which IC50 category applies to O=C(Cc1cnccc1Cl)N(Cc1cc(F)cc(Cl)c1)c1ccc(-c2c[nH]cn2)cc1 here? interval 2

// bin(item) where item = CC(C)(C)CN(C(=O)Cc1cncc2ccccc12)c1ccc(-c2c[nH]cn2)cc1 interval 2

====

Listing of recorded pIC50 by entry.
# TARGET SYSTEM: SARS-CoV-2 3CLpro (Severe acute respiratory syndrome coronavirus 2 (2019-nCoV) (SARS-CoV-2))
Keep in mind that pIC50 stands for -log10 of concentration in molar terms.

# example entries with known answers
MOLECULE: O=C(Cc1cncc2ccccc12)N(Cc1cncc(F)c1)c1ccc(C2CNC2)cc1
pIC50: 6.71
--
MOLECULE: C[C@H](c1cc(F)cc(Cl)c1)N(C(=O)Cc1nnc2ccccn12)c1ccc(-c2c[nH]cn2)cc1
pIC50: 6.23
--
MOLECULE: O=C1CN(c2ccc(N(Cc3cc(F)cc(F)c3)C(=O)Cc3cncc4ccccc34)cc2)CCN1
pIC50: 6.43

Look up pIC50 of O=C(Cc1cncc2ccccc12)N(Cc1cc(F)cc(F)c1)c1ccc(-c2c[nH]cn2)cc1 and report it. 7.28
